target-of-assay: T1, PHD3 K1622A (UniProt P29375 1609-1659, K1622A)
T1 sequence: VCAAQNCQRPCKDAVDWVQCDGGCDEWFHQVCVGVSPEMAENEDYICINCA
experimental-protocol: FP
Square brackets hold non-standard residues; d marks the D form. Ends that are not written are not given here. Lys(Me3) = C[N+](C)(C)CCCC[C@H](N)C(=O)O; fluorescent label = not defined here
quantity: Kd (nM)

binder: ART[Lys(Me3)]QTARKS-{fluorescent label} (reading uncertain) [10mer H3K4me3 tracer containing a C-terminal fluorescent label]
quantity: Kd
result-units: nM
result-value: 160
